Origin of measurements: the supplement of paper PMC5908809

tested on: normal primary NK cells, pool 2 (3 donors) (IL-2 2.5 ng/mL); test: drug sensitivity score (DSS) (DSS units); higher = more sensitive; extreme values may be limits of the assay; settings: 72 h
Can you tell me drug sensitivity score for the items I'm about to list?
Provide a numeric answer; units are not to be included.

Prompt line: Can you share its drug sensitivity score? I mean this molecule: C#Cc1cccc(Nc2ncnc3cc(OCCOC)c(OCCOC)cc23)c1 [Erlotinib] (max concentration tested 10000 nM)
Response line: 2.92

Prompt line: Next: Clc1ccccc1C(c1ccccc1)(c1ccccc1)n1cccn1 [TRAM-34] (max concentration tested 1000 nM)
Response line: 0

Prompt line: Next: COc1cc(C(=O)NC2CCN(C)CC2)c(F)cc1Nc1ncc2c(n1)N(C1CCCC1)CC(F)(F)C(=O)N2C [TAK-960] (max concentration tested 2500 nM)
Response line: 0.16

Prompt line: Next: O=C(O)CNC(=O)c1c(O)c2ccccc2n(Cc2ccccc2)c1=O [IOX-2] (max concentration tested 50000 nM)
Response line: 0

Prompt line: Next: Cc1ccc(C(=O)N(CCCN)[C@@H](c2oc3cc(Cl)ccc3c(=O)c2Cc2ccccc2)C(C)C)cc1 (max concentration tested 100 nM)
Response line: 1.26

Prompt line: Next: COc1cc2nccc(Oc3ccc(NC(=O)C4(C(=O)Nc5ccc(F)cc5)CC4)cc3)c2cc1OC [Cabozantinib] (max concentration tested 1000 nM)
Response line: 0

----------
Can you tell me percent inhibition of viability for the items I'm about to list?
test system: SNK-6 (IL-2 2.5 ng/mL); assay: percent inhibition of viability; higher = more inhibition; details: 72 h; 10000 nM
// note: answer is a bare numeric in %

Prompt line: Can you share its percent inhibition of viability? I mean this compound: CC(C)(C#N)c1cc(Cn2cncn2)cc(C(C)(C)C#N)c1 [Anastrozole] (max concentration tested 10000 nM)
Response line: 2.15

Prompt line: Next: Cc1nc(Nc2n[nH]c3c2CN(C(=O)N[C@H](CN(C)C)c2ccccc2)C3(C)C)c2sccc2n1 (max concentration tested 10000 nM)
Response line: 87.1

Prompt line: Next: Cn1cncc1[C@@](N)(c1ccc(Cl)cc1)c1ccc2c(c1)c(-c1cccc(Cl)c1)cc(=O)n2C [Tipifarnib] (max concentration tested 10000 nM)
Response line: 79

Prompt line: Next: Cc1ccc(NC(=O)c2ccc(CN3CCN(C)CC3)cc2)cc1Nc1nccc(-c2cccnc2)n1 [Imatinib] (max concentration tested 10000 nM)
Response line: 56.1

Prompt line: Next: CNC(=O)c1nn(C)c2c1C(C)(C)Cc1cnc(Nc3ccc(N4CCN(C)CC4)cc3)nc1-2 [Milciclib] (max concentration tested 10000 nM)
Response line: 93.1

Prompt line: Next: C[C@@H]1COC(Nc2ccc3ncnc(Nc4ccc(OCc5nccs5)c(Cl)c4)c3c2)=N1 [Varlitinib] (max concentration tested 10000 nM)
Response line: 29.6

----------
test system: NK-YS (IL-2 2.5 ng/mL); test: percent inhibition of viability; higher = more inhibition; conditions: 72 h; 1 nM
Assay metric: percent inhibition of viability (%)
// note: answer is a bare numeric in %

Prompt line: Can you share its percent inhibition of viability? I mean this molecule: O=C(Nc1c[nH]nc1-c1nc2ccc(CN3CCOCC3)cc2[nH]1)NC1CC1 [AT9283] (max concentration tested 1000 nM)
Response line: -5.41

Prompt line: Next: CC(C)N(CCCNC(=O)Nc1ccc(C(C)(C)C)cc1)C[C@H]1O[C@@H](n2cc(Br)c3c(N)ncnc32)[C@H](O)[C@@H]1O [SGC0946] (max concentration tested 10000 nM)
Response line: -4.5

Prompt line: Next: O=C(CCBr)N1CCN(C(=O)CCBr)CC1 [Pipobroman] (max concentration tested 10000 nM)
Response line: -6.73

Prompt line: Next: CO[C@H]1/C=C\C=C(/C)C(=O)NC2=CC(=O)C(NCCN(C)C)=C(C[C@@H](C)C[C@H](OC)[C@H](O)[C@@H](C)/C=C(\C)[C@@H]1OC(N)=O)C2=O [Alvespimycin] (max concentration tested 1000 nM)
Response line: 5.02

Prompt line: Next: COc1ccc(-c2ccc3c(N4CCOC[C@@H]4C)nc(N4CCOC[C@@H]4C)nc3n2)cc1CO [AZD8055] (max concentration tested 10000 nM)
Response line: 4.19

Prompt line: Next: Cc1nc(Nc2ncc(C(=O)Nc3c(C)cccc3Cl)s2)cc(N2CCN(CCO)CC2)n1 [Dasatinib] (max concentration tested 1000 nM)
Response line: -3.69
